Hello, the source for this data is the supplement of paper PMC10567573, in case you need it.

protocol: protein stability index of a GFP-peptide fusion (GPS, HEK-293T) (PSI 1-6); higher = more stable;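 further: 24-mer peptide tiles fused after GFP, lentivirally expressed, FACS-sorted into six equal bins by GFP/DsRed ratio, decoded by Illumina sequencing, PSI is the read-weighted mean bin number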
experimental.setup: treatment: MLN4924 1 uM, 8 h; c terminus: a fixed tail appended
// protein stability index lookup, one value per entry
endpoint.name: protein stability index

> print(dat)
                         item.sequence  reported.result
 1    WAVVTMTTVGYGDMKPITVGGKIV [KCNA4]             2.72
 2    VVEKRLCMYEHGEDTHQSPEPEDE [RSPH3]             5.58
 3    RNRAITARRQHLKSVMLQIAATEL [TNNI2]             2.72
 4   VVETVFFLTSRTRALLRRFPRMLL [ZSWIM9]             2.87
 5    YKIVTAREWRCCPGHSGVSCEEVA [EMID1]             2.39
 6   ILTTSNITEKIDVAFVDRADIKQY [TRIP13]             3.02
 7    LKNEVERLKKQLRAAQLQHSEKMA [CCDC6]             3.14
 8    ERLKANDNLKFSQEYESIDPGQQF [PTPRD]             4.22
 9  VDYKQSVLNVAGEAGGKQKAVEEE [SLC6A17]             5.68
10    DPLFGMCEKFLQEVDFFQRYFIAD [INTS4]             2.21
11     SDGWWRGSYNGQIGWFPSNYVLEE [NCK2]             2.73
12     DSLLLHSSGQCRRRKRTYWNDSCG [WEE1]             2.82
13  FQSHEPEFDYLKSLEIEEKINKIR [PPP2R2B]             3.56

----------
protocol: protein stability index of a GFP-peptide fusion (GPS, HEK-293T) (PSI 1-6); higher = more stable
experimental.setup: treatment: MLN4924 1 uM, 8 h; c terminus: a fixed tail appended
endpoint.name: protein stability index

> print(dat)
                        item.sequence  reported.result
1    TGPRLSFPLLPDHATALVEAFRLK [PPEF2]             3.07
2  IETEPTVHHLPLSTEKVVQETVLV [EPB41L3]             3.84
3      IQKRNQRQSGDRRQLPPPPTPANE [WAS]             5.16
4  LLLPGLNQHGIILKYIGMAKREIN [ARL6IP1]             2.38
5  KARSYSYPHCTGISQQDPESDSQG [ZC2HC1C]             5.25
6  EIIELLILSGARVNAKDNMWLTPL [ANKRD44]              3.3
7   RCFYTRKDVRRHLVVHTGCKDFLC [PLAGL1]             2.19

----------
protocol: protein stability index of a GFP-peptide fusion (GPS, HEK-293T) (PSI 1-6); higher = more stable
experimental.setup: treatment: MLN4924 1 uM, 8 h; c terminus: a fixed tail appended
If the reported protein stability index equals or exceeds 3, assign 1. If not, assign -1.

> print(dat)
                        item.sequence  class.assignment
1  IKGKEGSALTEGAKEEGGEEVAKA [EPB41L3]                 1
2   LEQFVTRFLLKETLNQLQSLQNSL [NECAB1]                -1
3     YYRGFTLFQTHENREHLVMMEKIL [CLK3]                -1
4   PPYQGGPPRPPMGMRPPVMSQGGR [ZNF207]                 1
5    KAMLQLHERGLKLHQTIYNQACKL [INTS4]                -1
6      DDDKYKITLKYPHYFPVMKKCCIP [NLN]                -1
7   NLLNMAYGVKSPLSLIARFSPIAI [ELAVL3]                -1

----------
protocol: protein stability index of a GFP-peptide fusion (GPS, HEK-293T) (PSI 1-6); higher = more stable
experimental.setup: treatment: DMSO; c terminus: a fixed tail appended
endpoint.name: protein stability index

> print(dat)
                         item.sequence            endpoint.name  reported.result
 1  FNMLHDNSKPCISLNGPLSTSRHV [ADAMTS4]  protein stability index             3.21
 2   KAQIWDTAGQERYRAITSAYYRGA [RAB11A]  protein stability index             2.88
 3    NFDDILNVCDDYDVTCNEFFFDRN [KCNG1]  protein stability index              3.4
 4  ALSGASQPGPSGAPAQRATRGFLR [RETREG3]  protein stability index             4.59
 5     DLSKPPCRKAKEIRKERKRLKLMQ [ATE1]  protein stability index             3.55
 6     PPSEPVPSLEDISCNTWPSMPSYS [TBX5]  protein stability index             4.27
 7     PRGARCSNGFPERDPPRPGPSRPA [GCH1]  protein stability index             4.71
 8    RIDSQFLIGDTLLVAPVLEPGKQE [MYORG]  protein stability index             3.77
 9    GREVELKPYIAAHFDVLPTEFTLG [PTPRD]  protein stability index             3.01
10    VQLRFCGRQPCGRFLRAYREGALR [TRADD]  protein stability index             2.61
11     DQIRQGIQLKSVADGQESTPPTPA [WASL]  protein stability index             5.33
12  HHAKDSEGVEIMLGVCASGLLIYR [EPB41L3]  protein stability index             2.12
13   VQRHLYLQDVIMQVADVPEKPRVP [ZNF511]  protein stability index              2.8
14    KVNQNQAKRCTVIGGSGFLGQHMV [NSDHL]  protein stability index             2.22
15   HAPGVPRILVGNRLHLAFKRQVPT [RAB40C]  protein stability index             2.69
16    TEVPYATFTEHPMKYTSEKFLEIC [TPRG1]  protein stability index             2.64
17    GARQQQVTTYLHKDYNNLWIIKKH [POMT2]  protein stability index             2.49
18    LSSWELEAWYEDLQEVLSSDENGG [DDIT3]  protein stability index             3.19
19  SKEDKDLDSSEGSSQEDEDLGLSE [SPANXN3]  protein stability index             5.57
20    ESSSPARGIAIVSVLVILISIVIF [KCNA4]  protein stability index             3.13
21  RCMQCDAKFDFLTRKHHCRRCGKC [ZFYVE21]  protein stability index             3.94
22   SCKLVRDKITGQSLGYGFVNYSDP [ELAVL3]  protein stability index              2.4
23   AAAIIVYDITKEETFSTLKNWVKE [RAB22A]  protein stability index             2.67
24    TRRSTAEAFQIVLSHLLGDAGSPY [SPNS1]  protein stability index             2.52
25  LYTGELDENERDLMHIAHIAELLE [RHOBTB2]  protein stability index             2.69
26     PDSFYELKSQPLPLRSSLPISLQA [TFE3]  protein stability index             3.14
27   EKQADFLDKQMSRDEHRARAMKIP [NFE2L1]  protein stability index             4.46
28    EAEALAGTGLVLDEQLNEFHCLWD [HDAC6]  protein stability index             4.29
29   AFRSDDTKGHPRAVSQPFRLSSSL [CDC14A]  protein stability index             3.43
30   AKVNILLVENDQQLQKILSIPQSS [ACSBG2]  protein stability index             2.21
31    AEGVVLSDSPDAADSTSFDVQLGD [PPTC7]  protein stability index              5.4
32   FHYVDILALLPAAWEDSHGSQDGH [SCNN1D]  protein stability index             2.26
33   GKVLQNKQAEICQLEEKLEIANED [CCDC89]  protein stability index             5.26
34     YSPAVMNYSIPSNVTNLEGGPGRQ [ESR2]  protein stability index              3.8
35    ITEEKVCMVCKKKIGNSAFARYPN [VPS39]  protein stability index             2.73
36    ARMLFSAVEWARNIPFFPDLQITD [NR2F2]  protein stability index              2.1
37    PLDMFSEEIKFYELGEEAMEKFRE [KCNA1]  protein stability index             4.71
38    YLPPERIREKSRLFDTKHDVYSFA [RIPK4]  protein stability index             2.62
39  RIFAHKIYLSTSSSKFYDLFLMDL [RHOBTB2]  protein stability index             2.97
40    LSELPPLEDMGQPPAEEAEQPGAL [FKBP8]  protein stability index             5.59
41    REAGFHQYEVSNFARNGALSTHNW [RSAD1]  protein stability index             2.97
42    VAETSGETIQGFWLLTKIDHWNNE [TPRG1]  protein stability index             2.11
43    MALPFFSLAEVRVGYQSQNISCFF [MYORG]  protein stability index             3.15
44    GTEEKKKLIRDFDEKQQEANETLA [VTI1B]  protein stability index             5.57
45  GTASSGSSRLPQPSGAGKTVVGVP [ZC2HC1A]  protein stability index             4.74
46    ETPGCATLLPASLFVNSHPGIDRP [DCAF4]  protein stability index             3.61
47    LKIELETYKLKCKALQEENRDLRK [CCDC6]  protein stability index             4.25
48   YPPQMGEEYSQIIYSTKLYRFFKY [BTBD10]  protein stability index             2.88
49   LAPVRQQELASLLRTYLARLPWAG [PBXIP1]  protein stability index             2.22
50   SKSLCHDEIENLLDSDHRELIGDY [CDC25B]  protein stability index             4.13
51    MASNERDAISWYQKKIGAYDQQIW [PHTF1]  protein stability index             2.51
52    DAGSPYLIGLISDRLRRNWPPSFL [SPNS1]  protein stability index             2.22
53     EGGEVRFNGKGKKIRKPRTIYCSL [DLX1]  protein stability index             2.92
